- System: H929 multiple myeloma tumour line
- assaySummary: In vitro cytotoxicity, Microculture Tetrazolium Assay
- Format: cell-based
- conditionSet: Homo sapiens, NCI-H929, 48 h, H929 cells, 48 hours exposure, MTT; read-out: IC50 (μM) MTT H929
Listed here are compounds together with their documented IC50.
Dear colleague, please return just the value in µM, with no unit written.

Please review the entries below; each comes with its answer.
- Cc1c(-c2c(-c3ccc(Cl)o3)sc3ncnc(OC(Cc4ccccc4OCc4ccncn4)C(=O)O)c23)ccc(OCCN2CCN(C)CC2)c1Cl (stereo not drawn): 0.018
- CCc1sc2ncnc(OC(Cc3ccccc3)C(=O)O)c2c1-c1cc2nc(CN3CCOCC3)oc2c(Cl)c1C (stereo not drawn): 25.7
- COc1ccccc1-c1nccc(COc2ccccc2CC(Oc2ncnc3sc(-c4ccc(F)cc4)c(-c4ccc(OCCN5CCN(C)CC5)c(Cl)c4C)c23)C(=O)OC(C)C)n1 (stereo not drawn): 0.494
- CCC#Cc1sc2ncnc(OC(Cc3ccccc3OC)C(=O)O)c2c1-c1ccc(OCCN2CCN(C)CC2)c(Cl)c1C (stereo not drawn): 0.366
- CCc1sc2ncnc(OC(Cc3ccccc3)C(=O)O)c2c1-c1cc(CN2CCN(C)CC2)c(OC)c(Cl)c1C (stereo not drawn): 11.3

Qu. Could you share which IC50 value was measured for COCCOc1ccccc1-c1nccc(COc2ccccc2CC(Oc2ncnc3sc(-c4ccc(F)cc4)c(-c4ccc(OCCN5CCN(C)CC5)c(Cl)c4C)c23)C(=O)O)n1 (stereo not drawn) ?
Ans. 0.002

###

- Test system: H929 multiple myeloma tumour line
- assaySummary: In vitro cytotoxicity, Microculture Tetrazolium Assay
- Assay type: cell-based
- conditionSet: Homo sapiens, NCI-H929, 48 h, H929 cells, 48 hours exposure, MTT; read-out: IC50 (μM) MTT H929
propertyMeasured: IC50 (µM)
The reply should contain only the number, in µM.

Reference set (2 entries):
* COc1ccccc1-c1nccc(COc2ccccc2CC(Oc2ncnc3sc(-c4ccc(OCc5ccccc5)cc4)c(-c4ccc(OCCN5CCN(C)CC5)c(Cl)c4C)c23)C(=O)O)n1 (stereo not drawn) | 0.014
* Cc1c(-c2c(-c3ccco3)sc3ncnc(OC(Cc4ccccc4OCc4ccnn4C)C(=O)O)c23)ccc(OCCN2CCN(C)CC2)c1Cl (stereo not drawn) | 0.033

Qu. For Cc1c(-c2c(-c3ccco3)sc3ncnc(OC(Cc4ccccc4OCc4cccnn4)C(=O)O)c23)ccc(OCCN2CCN(C)CC2)c1Cl (stereo not drawn) , what is its reported IC50?
Ans. 0.211

###

IC50 by entry:
- testedTarget: Mcl-1 protein (UniProtKB primary accession number: Q07820) (Homo sapiens, UniProt Q07820)
- Sequence (Q07820 whole entry): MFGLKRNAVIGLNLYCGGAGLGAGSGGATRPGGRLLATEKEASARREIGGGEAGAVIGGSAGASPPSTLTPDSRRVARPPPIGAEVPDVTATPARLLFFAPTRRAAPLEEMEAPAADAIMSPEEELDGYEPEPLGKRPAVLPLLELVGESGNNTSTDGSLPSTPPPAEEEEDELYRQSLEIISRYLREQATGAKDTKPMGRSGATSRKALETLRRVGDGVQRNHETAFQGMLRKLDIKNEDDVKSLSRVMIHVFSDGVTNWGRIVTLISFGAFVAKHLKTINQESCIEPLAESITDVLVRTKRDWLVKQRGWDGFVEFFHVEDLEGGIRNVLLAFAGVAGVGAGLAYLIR
- assaySummary: Inhibition of Mcl-1 by fluorescence polarisation, Method 1
- Assay type: binding
- conditionSet: fluorescence polarisation test; Method 2 values are underlined in the patent (underlining not visible here); read-out: IC50 (M) Mcl-1 FP
Record the value in M, omitting the unit from your answer.

Illustrative cases are given below, each with its answer.
• Cc1c(-c2c(-c3ccc(F)cc3)sc3ncnc(OC(Cc4ccccc4OCc4ccnn4CC4CC4)C(=O)O)c23)ccc(OCCN2CCN(C)CC2)c1Cl (stereo not drawn) [Example 78] = 6.6e-09
• COc1ccccc1CC(Oc1ncnc2sc(-c3ccco3)c(-c3ccc(OCCN4CCN(c5ccccc5)CC4)c(Cl)c3C)c12)C(=O)O (stereo not drawn) [Example 325] = 5.2e-08

We next turn to a different compound, shown below.
Qu. Which IC50 is reported for this compound? Cc1c(-c2c(-c3ccc(F)cc3)sc3ncnc(OC(Cc4ccccc4OCc4ccnc(OCC(F)(F)F)n4)C(=O)O)c23)ccc(OCCN2CCN(C)CC2)c1Cl (stereo not drawn) [Example 58]
Ans. 4e-09

###

- Test system: H929 multiple myeloma tumour line
- assaySummary: In vitro cytotoxicity, Microculture Tetrazolium Assay
- Type: cell-based
- conditionSet: Homo sapiens, NCI-H929, 48 h, H929 cells, 48 hours exposure, MTT; read-out: IC50 (μM) MTT H929
propertyMeasured: IC50 (µM)
Express it in µM; write the number only.

Use the examples below as a reference point.
• CNC(=O)COc1ccccc1CC(Oc1ncnc2sc(-c3ccco3)c(-c3ccc(OCCN4CCN(C)CC4)c(Cl)c3C)c12)C(=O)O (stereo not shown) = 0.805
• CC#Cc1sc2ncnc(OC(Cc3ccccc3OC)C(=O)O)c2c1-c1ccc(OCCN2CCCCC2)c(Cl)c1C (stereo not shown) = 3.06
• COc1ccccc1CC(Oc1ncnc2sc(-c3ccco3)c(-c3ccc(OCCC4CCN(C)CC4)c(Cl)c3C)c12)C(=O)O (stereo not shown) = 0.852
• COc1ccccc1CC(Oc1ncnc2sc(C(C)(F)F)c(-c3ccc(OCCN4CCN(C)CC4)c(Cl)c3C)c12)C(=O)O (stereo not shown) = 1.51
• COc1ccccc1CC(Oc1ncnc2sc(-c3ccco3)c(-c3ccc(OCC4CCN(C)CC4)c(Cl)c3C)c12)C(=O)O (stereo not shown) = 1.59
• CCOCCn1nccc1COc1ccccc1CC(Oc1ncnc2sc(-c3ccc(F)cc3)c(-c3ccc(OCCN4CCN(C)CC4)c(Cl)c3C)c12)C(=O)O (stereo not shown) = 0.027
• COc1ccccc1-c1nccc(COc2ccccc2CC(Oc2ncnc3sc(-c4ccc(OCc5ccn(C)n5)cc4)c(-c4ccc(OCCN5CCN(C)CC5)c(Cl)c4C)c23)C(=O)O)n1 (stereo not shown) = 0.007
• COCc1nccc(COc2ccccc2CC(Oc2ncnc3sc(-c4ccc(F)cc4)c(-c4ccc(OCCN5CCN(C)CC5)c(Cl)c4C)c23)C(=O)O)n1 (stereo not shown) = 0.009

Qu. What IC50 value was documented for this molecule, COCC#Cc1sc2ncnc(OC(Cc3ccccc3OCc3ccnc(-c4ccccc4OC)n3)C(=O)O)c2c1-c1ccc(OCCN2CCN(C)CC2)c(Cl)c1C (stereo not shown) ?
Ans. 0.023

Qu. Recorded IC50 for COCCN1CCN(CCOc2ccc(-c3c(-c4ccco4)sc4ncnc(OC(Cc5ccccc5OC)C(=O)O)c34)c(C)c2Cl)CC1 (stereo not shown) , please?
Ans. 1.17

Qu. For the molecule COc1ccc(-c2nccc(COc3ccccc3CC(Oc3ncnc4sc(-c5ccc(F)cc5)c(-c5ccc(OCCN6CCN(C)CC6)c(Cl)c5C)c34)C(=O)O)n2)c(C(F)(F)F)c1 (stereo not shown) , what IC50 is on record?
Ans. 0.009

Qu. Would you mind telling me what IC50 value was observed for Cc1c(-c2c(-c3cccc(F)c3F)sc3ncnc(OC(Cc4ccccc4OCc4ccnc(C(F)(F)F)n4)C(=O)O)c23)ccc(OCCN2CCN(C)CC2)c1Cl (stereo not shown) ?
Ans. 0.02

Qu. Entry COc1ccccc1CC(Oc1ncnc2sc(-c3ccco3)c(-c3ccc(OCCC4CCCN4C)c(Cl)c3C)c12)C(=O)O (stereo not shown) : reported IC50 = ?
Ans. 1.46

###

- testedTarget: Mcl-1 protein (UniProtKB primary accession number: Q07820) (Homo sapiens, UniProt Q07820)
- assaySummary: Inhibition of Mcl-1 by fluorescence polarisation, Method 1
- Type: binding
- conditionSet: fluorescence polarisation; Method 1, or Method 2; read-out: IC50 (M) Mcl-1 FP
Reported IC50 by item:
Write the number in M without appending the unit.

* COc1ccc(-c2nccc(COc3ccccc3CC(Oc3ncnc4sc(-c5ccc(F)cc5)c(-c5ccc(OCCN6CCN(C)CC6)c(Cl)c5C)c34)C(=O)O)n2)c(C(F)(F)F)c1 (stereo not shown) | 1.24e-09
* COc1ccccc1CC(Oc1ncnc2sc(-c3cc(F)cc(Cl)c3)c(-c3ccc(OCCN4CCN(C)CC4)c(Cl)c3C)c12)C(=O)O (stereo not shown) | 4.1e-09
* COCCOc1ccccc1CC(Oc1ncnc2sc(-c3ccco3)c(-c3ccc(OCCN4CCN(C(C)C)CC4)c(Cl)c3C)c12)C(=O)O (stereo not shown) | 6.9e-09
* Cc1c(-c2c(-c3cccn3C)sc3ncnc(OC(Cc4ccccc4)C(=O)O)c23)ccc(OCCN2CCN(C)CC2)c1Cl (stereo not shown) | 5e-07
* CCC#Cc1sc2ncnc(OC(Cc3ccccc3OC)C(=O)O)c2c1-c1ccc(OCCN2CCN(C)CC2)c(Cl)c1C (stereo not shown) | 1.1e-08

Qu. Requested field: IC50. Item: COc1ccccc1CC(Oc1ncnc2sc(-c3ccc(C#N)o3)c(-c3ccc(OCCN4CCN(C)CC4)c(Cl)c3C)c12)C(=O)O (stereo not shown)
Ans. 8.5e-09

###

Parameter IC50: see the listing below.
- System: H929 multiple myeloma tumour line
- assaySummary: In vitro cytotoxicity, Microculture Tetrazolium Assay
- Type: cell-based
- conditionSet: Homo sapiens, NCI-H929, 48 h, read-out: IC50 (μM) MTT H929, H929 cells, 48 hours exposure, MTT
Give the quantity in µM, number only.

Worked set:
* COc1ccccc1C[C@@H](Oc1ncnc2sc(-c3ccc(F)cc3)c(-c3cc(F)c(OCCN4CCN(C)CC4)c(Cl)c3C)c12)C(=O)O (single isomer, unassigned) | 2.08
* COc1ccccc1C[C@@H](Oc1ncnc2sc(-c3ccco3)c(-c3ccc(OCCN4CCN(C)CC4)c(F)c3C)c12)C(=O)O (single isomer, unassigned) | 0.968
* COc1ccccc1C[C@@H](Oc1ncnc2sc(-c3ccc(F)cc3)c(-c3ccc(CCCN4CCN(C)CC4)c(Cl)c3C)c12)C(=O)O (single isomer, unassigned) | 2.08

# context switch: different molecule, same IC50
Qu. For the molecule COc1ccccc1C[C@@H](Oc1ncnc2sc(-c3cccc(F)c3F)c(-c3ccc(C#CCN4CCN(C)CC4)c(Cl)c3C)c12)C(=O)O (single isomer, unassigned) , what IC50 is on record?
Ans. 0.865
